Experiment: NCI Yeast Anticancer Drug Screen. Data for the rad50 strain (AID 155);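 note: 0% = growth of vehicle-only cultures of the same strain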
Details: S. cerevisiae rad50 strain growth inhibition; at 50.0 µM; stronger effect = higher value
This is part of a sample that, as a whole, favours compounds with a hit. Of some 79,000 tested, about 15% had one in any assay.
Recorded measurements of growth inhibition, one per entry
measurement.name: growth inhibition (%)

{"molecule": "COC(=O)CCC(=O)NCC(=O)OCc1ccccc1", "measurement.name": "growth inhibition", "result.value": 0.55}
{"molecule": "CCC(CC)COC(=O)CC(CC(=O)OCC(CC)CC)C(=O)OCC(CC)CC", "measurement.name": "growth inhibition", "result.value": -12.3}
{"molecule": "Nc1c2ccccc2nc2ccc3c(=O)cc(-c4ccccc4)oc3c12", "measurement.name": "growth inhibition", "result.value": 20.6}
{"molecule": "Nc1ccc(F)cc1", "measurement.name": "growth inhibition", "result.value": -22.1}
{"molecule": "Nc1ncnc2c(C3OC(CO)C(O)C3O)nsc12 (stereo not drawn)", "measurement.name": "growth inhibition", "result.value": -6.8}
{"molecule": "C=CCNC(=S)Nc1ccccc1OCC", "measurement.name": "growth inhibition", "result.value": 5.2}
{"molecule": "CC(=O)Nc1cscc1NC(C)=O", "measurement.name": "growth inhibition", "result.value": -3.8}
{"molecule": "Cc1ccc(S(=O)(=O)OCCN(CCO)c2cn(C(c3ccccc3)(c3ccccc3)c3ccccc3)c(=O)n(C(c3ccccc3)(c3ccccc3)c3ccccc3)c2=O)cc1", "measurement.name": "growth inhibition", "result.value": -2.1}
{"molecule": "CCCC(=O)c1c(C)cc(C)cc1C", "measurement.name": "growth inhibition", "result.value": -6.6}
{"molecule": "CN(C)CCC(=O)c1cccnc1", "measurement.name": "growth inhibition", "result.value": 9.9}
{"molecule": "N#Cc1c(-c2ccc([N+](=O)[O-])cc2)c(C#N)c(=O)n(NS(=O)(=O)c2ccccc2)c1-c1ccccc1", "measurement.name": "growth inhibition", "result.value": 7.1}
{"molecule": "CCOC(=O)Cn1c(=O)n(C)c(=O)c2[nH]cnc21", "measurement.name": "growth inhibition", "result.value": 28.7}
{"molecule": "O=C(CO)c1ccc(-c2ccccc2)cc1", "measurement.name": "growth inhibition", "result.value": -8}
{"molecule": "O=C(O)CNC(=O)CNC(=O)CNC(=O)CNC(=O)CNC(=O)OCc1ccccc1", "measurement.name": "growth inhibition", "result.value": 38.2}
{"molecule": "CC(C)C1NC(=O)[C@H](C)OC(=O)[C@@H](C(C)C)NC(=O)[C@@H](C)OC(=O)C(C(C)C)NC(=O)[C@H](C)OC1=O (stereo partly drawn)", "measurement.name": "growth inhibition", "result.value": -36.7}
{"molecule": "COC1=C(OC)C(=O)C(Sc2ccc3ccccc3c2)=C(Cl)C1=O", "measurement.name": "growth inhibition", "result.value": 95.2}
{"molecule": "O=[N+]([O-])c1ccc(-c2nc3ncncc3[nH]2)cc1", "measurement.name": "growth inhibition", "result.value": 13.2}
{"molecule": "NC(=O)c1ccc(Cl)c([N+](=O)[O-])c1", "measurement.name": "growth inhibition", "result.value": 8.2}
{"molecule": "NOCc1ccc(OCc2ccccc2)cc1", "measurement.name": "growth inhibition", "result.value": 5.75}
{"molecule": "CC1CN(C(=O)C2CCCN(CCc3ccccc3)C2)CC(C)O1 (stereo not drawn)", "measurement.name": "growth inhibition", "result.value": 25.4}
{"molecule": "O=C(c1cc2ccccc2s1)c1ccccc1Cc1cccc2ccccc12", "measurement.name": "growth inhibition", "result.value": 33.8}
{"molecule": "COC(=O)C(CCCCNC(=O)OCc1ccccc1)NC(=O)c1ccc(N(C)C=O)cc1 (stereo not drawn)", "measurement.name": "growth inhibition", "result.value": 14.6}
{"molecule": "C=CCNC(=S)Nc1c(C)cc(C)cc1C", "measurement.name": "growth inhibition", "result.value": 7.2}
{"molecule": "O=S(=O)(O)C(O)c1ccncc1 (stereo not drawn)", "measurement.name": "growth inhibition", "result.value": -38.2}
{"molecule": "NC(=O)C1C=CN(Cc2ccccc2)C=C1", "measurement.name": "growth inhibition", "result.value": -5.2}
{"molecule": "CCNC1=CC(=O)c2ncccc2C1=O", "measurement.name": "growth inhibition", "result.value": 47.9}
{"molecule": "CC(C)N(CCCCO)C(C)C", "measurement.name": "growth inhibition", "result.value": -0.75}
{"molecule": "N#Cc1ccc(/C=C/C(=O)c2ccccc2)cc1", "measurement.name": "growth inhibition", "result.value": 13.4}
{"molecule": "Cc1cc2c(c(=O)o1)C(C)CC(c1c(O)cc(C)oc1=O)O2 (stereo not drawn)", "measurement.name": "growth inhibition", "result.value": 15.3}
{"molecule": "Cc1ccc(N(C(=O)CC(=O)NN)C(=O)c2ccccc2Cl)cc1", "measurement.name": "growth inhibition", "result.value": -12.4}
{"molecule": "COC(=O)C1CSCN1 (stereo not drawn)", "measurement.name": "growth inhibition", "result.value": -23.9}
{"molecule": "COc1cc(/C(=C\\c2ccccc2N)C(=O)O)cc(Br)c1OC", "measurement.name": "growth inhibition", "result.value": 9.35}
{"molecule": "CCC1(O)CC2C3C(C(=O)OC)=C4Nc5ccccc5C45CCN(C31)C25 (stereo not drawn)", "measurement.name": "growth inhibition", "result.value": 6.2}
{"molecule": "O=C(Nc1cccc([N+](=O)[O-])c1)OCC#CCOC(=O)Nc1cccc([N+](=O)[O-])c1", "measurement.name": "growth inhibition", "result.value": 3.8}
{"molecule": "CCOC(=O)c1ccc(NCc2cccc([N+](=O)[O-])c2)cc1", "measurement.name": "growth inhibition", "result.value": 10.2}
{"molecule": "Cc1cc(C)c2[nH]c(=O)c(C)c(C)c2c1Br", "measurement.name": "growth inhibition", "result.value": -0.5}
{"molecule": "CC(C)C1(C(C)C)OCC(CO)O1 (stereo not drawn)", "measurement.name": "growth inhibition", "result.value": 9.55}
{"molecule": "CCCCC(O)(c1ccccc1)c1ccccc1CN(C)C (stereo not drawn)", "measurement.name": "growth inhibition", "result.value": 1.7}
{"molecule": "Clc1ccc2sc(-c3ccccc3)nc2c1", "measurement.name": "growth inhibition", "result.value": -22.8}
{"molecule": "O=C(O)/C=C/C=C/c1ccccc1", "measurement.name": "growth inhibition", "result.value": 8.9}
{"molecule": "Cc1ccc(SC(C)/C=C/NNC2=NC(c3ccccc3)C(c3ccccc3)=NN2)cc1 (stereo not drawn)", "measurement.name": "growth inhibition", "result.value": 35.2}
{"molecule": "COC(=O)CN(c1ccc(C#N)c2ccccc12)S(=O)(=O)c1ccccc1", "measurement.name": "growth inhibition", "result.value": 32.4}
{"molecule": "Cc1cc(NS(=O)(=O)c2ccc(NC(=O)c3ccc(Cl)c4c(Nc5ccc(S(N)(=O)=O)cc5)c5ccccc5nc34)cc2)no1", "measurement.name": "growth inhibition", "result.value": 34}
{"molecule": "CC(C)(C)OC(=O)NCCc1ccc(N)cc1", "measurement.name": "growth inhibition", "result.value": -18.1}
{"molecule": "C/C=C/C1OC(OC)(OC)C1(OC)OC (stereo not drawn)", "measurement.name": "growth inhibition", "result.value": 38.8}
{"molecule": "c1ccc2[nH]cnc2c1", "measurement.name": "growth inhibition", "result.value": 7.85}
{"molecule": "CC(=O)NCc1cc([N+](=O)[O-])ccc1O", "measurement.name": "growth inhibition", "result.value": 11.6}
{"molecule": "CC1OC(OC2C(Oc3cc(O)c4c(=O)cc(-c5ccc(O)cc5)oc4c3)OC(CO)C(O)C2O)C(O)C(O)C1O (stereo not drawn)", "measurement.name": "growth inhibition", "result.value": -6.15}
